- measured.target: postsynaptic α1-adrenoreceptor (Rattus norvegicus)
- Construct: the rat anococcygeus muscle is used to establish postsynaptic α1 -adrenoreceptor activity; from tissue; host or cells: rat anococcygeus muscle
- test.description: Post-synaptic α1-adrenoreceptor agonist activity, rat anococcygeus muscle (contractions)
- recorded.conditions: potency relative to phenylephrine = 1
Reported values of α1 potency: Agonism for individual entries
No unit in the answer, only the number.

Some compounds with known α1 potency: Agonism results, for comparison:
{"columns": ["compound", "endpoint.value"],
 "data": [
  ["Cc1ccc2c(c1)OC(C1=NCCN1)CO2 (stereo not shown)", 0.004],
  ["Cc1cccc2c1OC(C1=NCCN1)CO2 (stereo not shown)", 2.1]
]}

Shifting focus to the compound that follows.
Data request: Fill in the blank: the reported α1 potency: Agonism of Cc1cccc2c1OCC(C1=NCCN1)O2 (stereo not shown) is ____.
Data returned: 1.0

====

Reported values of α2/α1 selectivity for individual entries
- Tested on: pre-synaptic α2-adrenoreceptor
- test.description: Pre-synaptic α2-adrenoreceptor antagonist activity, mouse vas deferens (reversal of clonidine inhibition)
- recorded.conditions: selectivity relative to the compound of formula A; mouse vas deferens / rat anococcygeus
Where a name gives a salt, the structure may show the parent alone.

{"columns": ["compound", "α2/α1 selectivity"],
 "data": [
  ["Cc1ccc2c(c1)OCC(C1=NCCN1)O2 (stereo not shown) [Example 6-methyl]", 0.7],
  ["CN1CCN=C1C1COc2ccccc2O1 (stereo not shown) [3^1 -methyl]", 0.003]
]}

Data request: Given the entry Cc1ccc2c(c1)OC(C1=NCCN1)CO2 (stereo not shown) [Example 7-methyl] , what α2/α1 selectivity was observed with pre-synaptic α2-adrenoreceptor?
Data returned: 0.64

Data request: Given the entry CC1(C2=NCCN2)COc2ccccc2O1 (stereo not shown) [Example 1, hydrochloride] , what α2/α1 selectivity was observed with pre-synaptic α2-adrenoreceptor?
Data returned: 2.4

====

- measured.target: postsynaptic α1-adrenoreceptor (Rattus norvegicus, UniProt P43140)
- Construct: the rat anococcygeus muscle is used to establish postsynaptic α1 -adrenoreceptor activity; from tissue; host or cells: rat anococcygeus muscle
- Sequence (P43140 whole entry): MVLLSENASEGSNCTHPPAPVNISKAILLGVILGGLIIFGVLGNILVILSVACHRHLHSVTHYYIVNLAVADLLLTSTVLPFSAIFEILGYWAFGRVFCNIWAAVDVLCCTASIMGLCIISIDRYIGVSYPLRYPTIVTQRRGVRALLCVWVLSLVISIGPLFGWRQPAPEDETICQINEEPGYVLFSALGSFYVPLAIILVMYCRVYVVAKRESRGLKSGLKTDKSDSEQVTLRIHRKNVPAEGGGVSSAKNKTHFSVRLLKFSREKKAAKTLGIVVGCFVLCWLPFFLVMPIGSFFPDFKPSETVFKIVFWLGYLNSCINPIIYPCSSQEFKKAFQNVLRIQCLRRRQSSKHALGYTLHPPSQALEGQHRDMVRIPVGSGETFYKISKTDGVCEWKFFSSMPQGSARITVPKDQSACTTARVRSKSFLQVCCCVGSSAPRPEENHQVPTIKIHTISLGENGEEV
- test.description: Post-synaptic α1-adrenoreceptor antagonist activity, rat anococcygeus muscle (noradrenaline-induced contractions)
- recorded.conditions: rat anococcygeus muscle vs noradrenaline, dose-ratio of 2; […]
Where a name gives a salt, the structure may show the parent alone.
Reported values of α1 potency: Antagonism for individual entries

{"columns": ["molecule", "measured.target", "endpoint.value"],
 "data": [
  ["CC1(C2=NCCN2)COc2ccccc2O1 (stereo not shown) [Example 1, hydrochloride]", "postsynaptic α1-adrenoreceptor (Rattus norvegicus, UniProt P43140)", 0.28],
  ["CC1Oc2ccccc2OC1C1=NCCN1 (stereo not shown)", "postsynaptic α1-adrenoreceptor (Rattus norvegicus, UniProt P43140)", "< 0.023"],
  ["Cc1ccc2c(c1)OCC(C1=NCCN1)O2 (stereo not shown)", "postsynaptic α1-adrenoreceptor (Rattus norvegicus, UniProt P43140)", "< 0.11"]
]}

Shifting focus to the molecule that follows.
Data request: Fill in the blank: the reported α1 potency: Antagonism of Cc1ccc2c(c1)OC(C1=NCCN1)CO2 (stereo not shown) is ____.
Data returned: 0.125

====

- measured.target: pre-synaptic α2-adrenoreceptor (Mus musculus, UniProt Q01338)
- Construct: from tissue; host or cells: mouse vas deferens
- Sequence (Q01338 whole entry): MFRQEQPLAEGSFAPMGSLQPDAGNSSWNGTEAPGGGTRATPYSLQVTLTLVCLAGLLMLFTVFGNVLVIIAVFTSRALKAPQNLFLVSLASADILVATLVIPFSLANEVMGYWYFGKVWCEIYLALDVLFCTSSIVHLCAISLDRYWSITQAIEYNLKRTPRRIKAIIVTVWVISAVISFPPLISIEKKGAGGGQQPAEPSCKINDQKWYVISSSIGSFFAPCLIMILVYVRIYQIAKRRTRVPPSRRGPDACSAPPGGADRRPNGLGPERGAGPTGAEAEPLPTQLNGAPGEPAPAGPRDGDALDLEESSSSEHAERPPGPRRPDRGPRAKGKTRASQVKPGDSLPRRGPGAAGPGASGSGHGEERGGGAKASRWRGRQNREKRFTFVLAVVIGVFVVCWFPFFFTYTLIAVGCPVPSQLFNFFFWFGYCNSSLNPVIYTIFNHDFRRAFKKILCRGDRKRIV
- test.description: Pre-synaptic α2-adrenoreceptor agonist activity, mouse vas deferens (inhibition of twitch responses)
- Set-up: key: I.A.: inactive
- recorded.conditions: potency relative to clonidine = 1
Counter-ions that a name gives are not always drawn.
result.type: α2 potency: Agonism

Some molecules with known α2 potency: Agonism results, for comparison:
{"columns": ["molecule", "endpoint.value"],
 "data": [
  ["CN1CCN=C1C1COc2ccccc2O1 (stereo not shown) [3^1 -methyl]", "I.A."],
  ["Cc1cccc2c1OCC(C1=NCCN1)O2 (stereo not shown) [Example 5-methyl]", 0.1],
  ["CC1Oc2ccccc2OC1C1=NCCN1 (stereo not shown) [Example 3-methyl]", "I.A."],
  ["Cc1ccc2c(c1)OC(C1=NCCN1)CO2 (stereo not shown) [Example 7-methyl]", "I.A."],
  ["Cc1ccc2c(c1)OCC(C1=NCCN1)O2 (stereo not shown) [Example 6-methyl]", "I.A."]
]}

Data request: Given the entry Cc1cccc2c1OC(C1=NCCN1)CO2 (stereo not shown) [Example 8-methyl] , what α2 potency: Agonism was observed with pre-synaptic α2-adrenoreceptor (Mus musculus, UniProt Q01338)?
Data returned: 0.01

Data request: Given the entry CC1(C2=NCCN2)COc2ccccc2O1 (stereo not shown) [Example 1, hydrochloride] , what α2 potency: Agonism was observed with pre-synaptic α2-adrenoreceptor (Mus musculus, UniProt Q01338)?
Data returned: I.A.

Origin of values: patent US4397860A
